Assayed System: Prostaglandin G/H synthase 1 (Homo sapiens)
Sequence (P23219 whole entry): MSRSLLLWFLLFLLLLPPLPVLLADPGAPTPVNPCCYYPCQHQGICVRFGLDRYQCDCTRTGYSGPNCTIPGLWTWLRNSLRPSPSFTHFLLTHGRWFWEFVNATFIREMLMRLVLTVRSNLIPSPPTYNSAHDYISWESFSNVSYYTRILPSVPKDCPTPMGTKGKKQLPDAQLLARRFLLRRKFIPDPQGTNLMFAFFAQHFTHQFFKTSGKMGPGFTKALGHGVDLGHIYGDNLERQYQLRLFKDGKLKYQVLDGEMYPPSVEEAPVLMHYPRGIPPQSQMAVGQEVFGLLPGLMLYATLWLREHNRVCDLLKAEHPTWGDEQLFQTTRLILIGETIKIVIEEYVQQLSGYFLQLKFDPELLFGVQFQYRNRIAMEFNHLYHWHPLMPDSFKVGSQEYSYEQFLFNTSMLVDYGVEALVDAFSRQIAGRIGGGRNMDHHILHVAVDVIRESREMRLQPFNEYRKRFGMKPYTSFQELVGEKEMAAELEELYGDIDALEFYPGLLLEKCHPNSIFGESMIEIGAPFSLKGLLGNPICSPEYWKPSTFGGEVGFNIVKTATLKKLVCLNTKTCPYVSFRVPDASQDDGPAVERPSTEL
Assay Protocol: Ratio for inhibition of COX-1 to that of COX-2
Value Kind: Ratio

Before answering, review these 5 worked examples.
CCCCCCCCCCCCCCCc1cccc(OC)c1CSc1nc2ccccc2s1 | > 470
CCCCCCCCCCCCCCCc1cccc(OCC)c1CSc1nc2cc([N+](=O)[O-])ccc2[nH]1 | > 130
CCCCCCCCCCCCCCCc1cccc(OC)c1CSc1nc2cc(C)ccc2[nH]1 | > 190
CCCCCCCCCCCCCCCc1cccc(O)c1CSc1nc2cc(OC)ccc2[nH]1 | 384
CCCCCCCCCCCCCCCc1cccc(OC)c1CSc1nc2cc([N+](=O)[O-])ccc2[nH]1 | > 220

Exercise: Dear colleague, I am looking for the recorded Ratio of the following compound: `CCCCCCCCCCCCCCCc1cccc(OCC)c1CSc1nc2ccccc2[nH]1`
Solution: > 340

Exercise: Query `CCCCCCCCCCCCCCCc1cccc(OCC)c1CSc1nc2cc(OC)ccc2[nH]1` next
Solution: > 80

Exercise: Query `CCCCCCCCCCCCCCCc1cccc(OC)c1CSc1nc2ccccc2o1` next
Solution: > 220

###

Assayed System: Prostaglandin G/H synthase 2 (Homo sapiens)
Assay Protocol: Inhibitory activity against Prostaglandin G/H synthase 2 in human whole blood assay as LPS induced PGE-2 generation.
Assay type: tissue-based
Value Kind: IC50

Before answering, review these 3 worked examples.
CCCCCCCCCCCCCCCc1cccc(OC)c1CSc1nc2ccccc2[nH]1 | > 10 µM
CCCCCCCCCCCCCCCc1cccc(OCC)c1CSc1nc2ccccc2o1 | > 10 µM
CCCCCCCCCCCCCCCc1cccc(OCC)c1CSc1nc2ccccc2s1 | > 10 µM

Exercise: Dear colleague, I am looking for the recorded IC50 of the following compound: `CCCCCCCCCCCCCCCc1cccc(OC)c1CSc1nc2cc(OC(F)F)ccc2[nH]1`
Solution: > 10 µM

Exercise: Query `CCCCCCCCCCCCCCCc1cccc(OCC)c1CSc1nc2ccc([N+](=O)[O-])cc2[nH]1` next
Solution: 3.84 µM

###

Assayed System: Prostaglandin G/H synthase 2 (Homo sapiens, UniProt P35354)
Sequence (P35354 whole entry): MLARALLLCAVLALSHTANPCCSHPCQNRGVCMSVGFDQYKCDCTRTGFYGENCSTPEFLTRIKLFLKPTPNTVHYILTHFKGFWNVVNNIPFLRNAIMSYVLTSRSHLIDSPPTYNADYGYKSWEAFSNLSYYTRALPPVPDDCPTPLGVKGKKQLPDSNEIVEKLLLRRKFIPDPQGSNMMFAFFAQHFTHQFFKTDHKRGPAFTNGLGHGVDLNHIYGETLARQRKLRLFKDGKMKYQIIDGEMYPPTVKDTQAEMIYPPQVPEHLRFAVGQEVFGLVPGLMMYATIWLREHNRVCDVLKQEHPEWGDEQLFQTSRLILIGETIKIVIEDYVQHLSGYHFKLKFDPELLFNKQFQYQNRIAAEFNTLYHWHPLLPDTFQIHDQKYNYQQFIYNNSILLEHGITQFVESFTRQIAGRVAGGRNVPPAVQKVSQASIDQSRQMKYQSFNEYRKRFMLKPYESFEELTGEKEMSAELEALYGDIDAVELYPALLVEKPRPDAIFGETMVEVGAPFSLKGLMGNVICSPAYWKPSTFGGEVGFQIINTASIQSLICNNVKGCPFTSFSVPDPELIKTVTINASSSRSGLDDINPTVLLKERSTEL
Assay Protocol: Inhibitory activity against Prostaglandin G/H synthase 2 in human whole blood assay as LPS induced PGE-2 generation.
pIC50: −log10 of the molar value.
Value Kind: pIC50

Before answering, review these 4 worked examples.
CCCCCCCCCCCCCCCc1cccc(OC)c1CSc1nc2ccccc2o1 | 5.56
CCCCCCCCCCCCCCCc1cccc(OC)c1CSc1nc2cc(C)ccc2[nH]1 | 5.58
CCCCCCCCCCCCCCCc1cccc(OC)c1CSc1nc2ccccc2s1 | 5.97
CCCCCCCCCCCCCCCc1cccc(OCC)c1CSc1nc2ccccc2[nH]1 | 5.83

1 = CCCCCCCCCCCCCCCc1cccc(O)c1CSc1nc2cc(OC)ccc2[nH]1
2 = CCCCCCCCCCCCCCCc1cccc(OC)c1CSc1nc2ccc([N+](=O)[O-])cc2[nH]1
3 = CCCCCCCCCCCCCCCc1cccc(OCC)c1CSc1nc2ccc(OC)cc2[nH]1
Exercise: Order the entries by their reported pIC50, beginning at the minimum. Use the labels to give the requested order.
Solution: 3, 2, 1
(3: 5.20, 2: 5.64, 1: 6.00)

The reported numbers originate from ChEMBL document CHEMBL1145760.
